Test system: L929 cells induced by TGF-β1
protocol.description: Inhibition of L929 cell proliferation induced by TGF-β1 (MTT)
Format: cell-based
condition.info: 2 μg/L TGF-β1, 72 h, MTT method
Description: L929 cells with a cell population of 5×10^7/L adjusted by DMEM culture solution containing 10% fetal bovine serum were seeded into 96 well plate, cultured for 24 h. Supplementing the same culture medium containing 2 μg/L TGF-β1 and (S)/(R)-salvianolic acid T of different concentrations. […]
measurement.label: IC50 (µM)
Give bare numbers, in µM.

### Prompt IC50 of O=C(/C=C/c1ccc(O)c(O)c1/C(=C\c1ccc(O)c(O)c1)C(=O)O)O[C@H](Cc1ccc(O)c(O)c1)C(=O)O [(R)-salvianolic acid T] on L929 cells induced by TGF-β1?
### Response 26.9
